Test system: S. Typhi PhoP-promoter GFP reporter, fluorescence, 4 h
Experiment: PhoP regulon inhibitor project modified counter assay, GFP fluorescence readout, dose response (AID 1985)
measurement.kind: IC50

Completed entries (count: 3):
{"compound": "Cc1cc(NS(=O)(=O)c2ccc(NC(=O)Nc3cccc(Cl)c3)cc2)no1", "obs.value": "137 µM"}
{"compound": "Cc1cc(C)n(/N=C/c2cc([N+](=O)[O-])ccc2O)c(=O)c1", "obs.value": "70.5 µM"}
{"compound": "COc1ccc(CCN2CCC(Nc3nc4ccccc4n3Cc3ccc(F)cc3)CC2)cc1", "obs.value": "105 µM"}

IC50 lookup needed for O=C1c2ccccc2C2=Nc3ccccc3SC(c3ccccc3F)C12 (centres undefined) , thanks. 21 µM

IC50 lookup needed for Cc1ccc2nc(NCc3ccccc3)[nH]c2c1 , thanks. 72.6 µM

IC50 lookup needed for O=C(Cc1ccc([N+](=O)[O-])cc1)N/N=C/c1ccc([N+](=O)[O-])o1 , thanks. 13.1 µM
